# credit: ChEMBL document CHEMBL3407424

Assay: Cytotoxicity against mouse RAW264.7 cells after 18 hrs by MTT assay
Format: cell-based
Entries annotated with measured CC50 at 18 h
Expressed in µM, but write only the number.

Consider the reported CC50 at 18 h for these compounds:
C=C1C(=O)OC[C@H]1CCOC(=O)Nc1ccc(CC)cc1: 11.3
C=C1C(=O)OC[C@@H]1CCOC(=O)Nc1cc(C(F)(F)F)cc(C(F)(F)F)c1: 12.4
C=C1C(=O)OC[C@H]1CCOC(=O)Nc1ccc(F)cc1F: 24.5

Input: Can you look up the measured CC50 at 18 h of C=C1C(=O)OC[C@H]1CCOC(=O)Nc1ccccc1F for me?
Output: 17.4

Input: Can you look up the measured CC50 at 18 h of C=C1C(=O)OC[C@H]1CCOC(=O)Nc1ccc(C)c(C)c1 for me?
Output: 18.2

Input: Can you look up the measured CC50 at 18 h of C=C1C(=O)OC[C@H]1CCOC(=O)Nc1ccc(C(C)C)cc1 for me?
Output: 12.4
